Entries annotated with measured koff
biological target: T1, human PDGF-BB (platelet derived growth factor B homodimer) (human, UniProt P01127); test: SPR; Biacore T200, off-rate screen; antibody captured (~70 to 100 RU) by anti-human IgG amine-coupled to a CM5 chip; human PDGF-BB injected at a single 2.5 nM for 170 s, dissociation 300 s; HBS-EP+ N (10 mM HEPES, 500 mM NaCl, 3 mM EDTA, 0.05% Tween20, pH 7.4); 25 C; conditions: both partners purified
T1 construct: Platelet derived growth factor B, human, homodimer, bought from PeproTech; the printed catalogue number may stand for 100-14B; source: bought: PeproTech, Catalog 100-148
T1 sequence (P01127 82-190): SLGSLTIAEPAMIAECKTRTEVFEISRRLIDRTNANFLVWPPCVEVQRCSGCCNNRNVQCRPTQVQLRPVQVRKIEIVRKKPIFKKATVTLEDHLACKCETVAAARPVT
parameter: koff (s⁻¹)

binder	parameter	data value
R1-011 (antibody, V domains shown, VH of AB-001 (AB-001_HC); only the variable regions are written; source: HEK293, transient, purified from conditioned medium (protein A, TMAE, HIC)) VH: EVQLLESGGGLVQPGGSLRLSCAASGFTFSSYAMSWVRQAPGKGLEWVSYISDDGSLKYYADSVKGRFTISRDNSKNTLYLQMNSLRAEDTAVYYCAKHPYWYGGQLDLWGQGTLVTVSS VL: SYELTQPPSVSVSPGQTASITCSGDSLGSYFVHWYQQKPGQSPVLVIYDDSNRPSGIPERFSGSNSGNTATLTISGTQAMDEADYYCSAFTHNSNVFGGGTKLTVL	koff	0.00086
R2-018 (antibody, V domains shown, as the VH of m20 (R2-001_HC); as the VL of m20 (R2-001_LC) with D26N (Kabat); only the variable regions are written; source: HEK293, transient, purified from conditioned medium (protein A, TMAE, HIC)) VH: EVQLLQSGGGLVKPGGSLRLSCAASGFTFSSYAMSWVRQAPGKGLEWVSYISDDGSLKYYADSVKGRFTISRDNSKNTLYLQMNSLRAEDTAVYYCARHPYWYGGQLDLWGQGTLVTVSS VL: SYVLTQPPSVSVAPGKTARITCSGNSLGSYFVHWYQQKPGQSPVLVIYDDSKRPSGIPERFSGSNSGNTATLTISGTQAMDEADYYCSAFTHNSDVFGGGTKLTVL	koff	0.000386
R1-009 (antibody, V domains shown, VH of AB-001 (AB-001_HC); only the variable regions are written; source: HEK293, transient, purified from conditioned medium (protein A, TMAE, HIC)) VH: EVQLLESGGGLVQPGGSLRLSCAASGFTFSSYAMSWVRQAPGKGLEWVSYISDDGSLKYYADSVKGRFTISRDNSKNTLYLQMNSLRAEDTAVYYCAKHPYWYGGQLDLWGQGTLVTVSS VL: SYELTQPPSVSVSPGQRASITCSGDSLGSYFVHWYQQKPGQSPVLVIYDDSNRPSGIPERFSGSNSGNTATLTISGTQAMDEADYYCSAFTHNSDVFGGGTKLTVL	koff	0.000393
R2-022 (antibody, V domains shown, as the VH of m20 (R2-001_HC); as the VL of m20 (R2-001_LC) with D96N (Kabat); only the variable regions are written; source: HEK293, transient, purified from conditioned medium (protein A, TMAE, HIC)) VH: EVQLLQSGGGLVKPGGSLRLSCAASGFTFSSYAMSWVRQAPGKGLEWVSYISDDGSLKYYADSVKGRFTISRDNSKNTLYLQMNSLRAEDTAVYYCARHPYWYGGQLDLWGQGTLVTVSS VL: SYVLTQPPSVSVAPGKTARITCSGDSLGSYFVHWYQQKPGQSPVLVIYDDSKRPSGIPERFSGSNSGNTATLTISGTQAMDEADYYCSAFTHNSNVFGGGTKLTVL	koff	0.000361
R1-003 (antibody, V domains shown, VL of AB-001 (AB-001_LC); only the variable regions are written; source: HEK293, transient, purified from conditioned medium (protein A, TMAE, HIC)) VH: EVQLLESGGGLVKPGGSLRLSCAASGFTFSSYAMSWVRQAPGKGLEWVSYISDDGSLKYYADSVKGRFTISRDNSKNTLYLQMNSLRAEDTAVYYCARHPYWYGGQLDLWGQGTLVTVSS VL: SYELTQPPSVSVSPGQTASITCSGDSLGSYFVHWYQQKPGQSPVLVIYDDSNRPSGIPERFSGSNSGNTATLTISGTQAMDEADYYCSAFTHNSDVFGGGTKLTVL	koff	0.000443
R2-020 (antibody, V domains shown, as the VH of m20 (R2-001_HC); as the VL of m20 (R2-001_LC) with D51N (Kabat); only the variable regions are written; source: HEK293, transient, purified from conditioned medium (protein A, TMAE, HIC)) VH: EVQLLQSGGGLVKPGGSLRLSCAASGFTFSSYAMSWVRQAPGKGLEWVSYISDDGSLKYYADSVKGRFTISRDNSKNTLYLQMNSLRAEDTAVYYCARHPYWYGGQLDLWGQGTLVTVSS VL: SYVLTQPPSVSVAPGKTARITCSGDSLGSYFVHWYQQKPGQSPVLVIYDNSKRPSGIPERFSGSNSGNTATLTISGTQAMDEADYYCSAFTHNSDVFGGGTKLTVL	koff	0.000386
R2-005 (antibody, V domains shown, as the VH of m20 (R2-001_HC); as the VL of m20 (R2-001_LC) with Y49R (Kabat); only the variable regions are written; source: HEK293, transient, purified from conditioned medium (protein A, TMAE, HIC)) VH: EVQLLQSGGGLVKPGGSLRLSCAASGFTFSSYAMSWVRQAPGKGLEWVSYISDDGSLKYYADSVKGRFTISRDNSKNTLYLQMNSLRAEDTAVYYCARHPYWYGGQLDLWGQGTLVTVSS VL: SYVLTQPPSVSVAPGKTARITCSGDSLGSYFVHWYQQKPGQSPVLVIRDDSKRPSGIPERFSGSNSGNTATLTISGTQAMDEADYYCSAFTHNSDVFGGGTKLTVL	koff	0.000348
R2-014 (antibody, V domains shown, as the VH of m20 (R2-001_HC) with D53Q; as the VL of m20 (R2-001_LC); only the variable regions are written; source: HEK293, transient, purified from conditioned medium (protein A, TMAE, HIC)) VH: EVQLLQSGGGLVKPGGSLRLSCAASGFTFSSYAMSWVRQAPGKGLEWVSYISDQGSLKYYADSVKGRFTISRDNSKNTLYLQMNSLRAEDTAVYYCARHPYWYGGQLDLWGQGTLVTVSS VL: SYVLTQPPSVSVAPGKTARITCSGDSLGSYFVHWYQQKPGQSPVLVIYDDSKRPSGIPERFSGSNSGNTATLTISGTQAMDEADYYCSAFTHNSDVFGGGTKLTVL	koff	0.000396
R2-007 (antibody, V domains shown, as the VH of m20 (R2-001_HC); as the VL of m20 (R2-001_LC) with S65K (Kabat); only the variable regions are written; source: HEK293, transient, purified from conditioned medium (protein A, TMAE, HIC)) VH: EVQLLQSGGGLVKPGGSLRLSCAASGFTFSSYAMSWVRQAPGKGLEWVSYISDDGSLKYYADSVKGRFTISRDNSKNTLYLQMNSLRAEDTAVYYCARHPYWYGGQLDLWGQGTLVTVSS VL: SYVLTQPPSVSVAPGKTARITCSGDSLGSYFVHWYQQKPGQSPVLVIYDDSKRPSGIPERFSGKNSGNTATLTISGTQAMDEADYYCSAFTHNSDVFGGGTKLTVL	koff	0.000401
R2-019 (antibody, V domains shown, as the VH of m20 (R2-001_HC); as the VL of m20 (R2-001_LC) with D50L (Kabat); only the variable regions are written; source: HEK293, transient, purified from conditioned medium (protein A, TMAE, HIC)) VH: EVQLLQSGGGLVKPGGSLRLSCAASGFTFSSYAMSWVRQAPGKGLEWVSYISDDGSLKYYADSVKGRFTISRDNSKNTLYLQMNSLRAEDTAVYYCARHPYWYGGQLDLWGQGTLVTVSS VL: SYVLTQPPSVSVAPGKTARITCSGDSLGSYFVHWYQQKPGQSPVLVIYLDSKRPSGIPERFSGSNSGNTATLTISGTQAMDEADYYCSAFTHNSDVFGGGTKLTVL	koff	0.000673
R2-008 (antibody, V domains shown, as the VH of m20 (R2-001_HC); as the VL of m20 (R2-001_LC) with S67K (Kabat); only the variable regions are written; source: HEK293, transient, purified from conditioned medium (protein A, TMAE, HIC)) VH: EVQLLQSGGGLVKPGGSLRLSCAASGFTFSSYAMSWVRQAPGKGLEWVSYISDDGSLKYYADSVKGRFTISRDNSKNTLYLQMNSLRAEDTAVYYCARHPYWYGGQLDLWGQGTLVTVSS VL: SYVLTQPPSVSVAPGKTARITCSGDSLGSYFVHWYQQKPGQSPVLVIYDDSKRPSGIPERFSGSNKGNTATLTISGTQAMDEADYYCSAFTHNSDVFGGGTKLTVL	koff	0.000396
